Test: 4 hr in-vivo study: meloxicam plasma concentration after oral delivery to rats
Settings: rat, time 120 min
measure: meloxicam plasma concentration (µg/mL)
Write the number in µg/mL without appending the unit.

Past entries and their recorded results:
Query block: Give its meloxicam plasma concentration value. Item: Cc1cnc(NC(=O)C2=C(O)c3ccccc3S(=O)(=O)N2C)s1.Cc1cnc(NC(=O)C2=C(O)c3ccccc3S(=O)(=O)N2C)s1.O=C(O)CC(O)C(=O)O [Cocrystal 154, Meloxicam:DL-Malic Acid Cocrystal (2:1)]
Result block: 32.31

Query block: Quick one: Cc1cnc(NC(=O)C2=C(O)c3ccccc3S(=O)(=O)N2C)s1.O=C(O)c1ccccc1 [Cocrystal 153, Meloxicam:Benzoic Acid Cocrystal (1:1)]
Result block: 33.31

More entries:
Query block: Give its meloxicam plasma concentration value. Item: Cc1cnc(NC(=O)C2=C(O)c3ccccc3S(=O)(=O)N2C)s1.O=C(O)CCCC(=O)O [Cocrystal 92, Meloxicam:Glutaric Acid Cocrystal (1:1)]
Result block: 35.94
